Below: compounds with IC50 recorded for Potassium voltage-gated channel subfamily A member 5 (Homo sapiens, UniProt P22460) in separate published works.

Worked cases, answers included:
> print(dat)
                            chemical.smiles                              assay.system  measurement.label  meas.value
1  C[C@@H](C(N)=O)[C@H](N)c1nc2ccc(C(C)(C)C)cc2[nH]1  Potassium voltage-gated channel subfamily A member 5 (Homo sapiens, UniProt P22460)               IC50     > 30 µM
2  NC(=O)C(c1ccccc1)(c1ccc(F)cc1)c1ccc(F)cc1  Potassium voltage-gated channel subfamily A member 5 (Homo sapiens, UniProt P22460)               IC50      > 1 µM
3  Cc1cc(-c2ccc(C(=O)[C@@H]3CCCC[C@H]3C(=O)Nc3cnn4c3C(=O)NCC4)cc2)[nH]n1  Potassium voltage-gated channel subfamily A member 5 (Homo sapiens, UniProt P22460)               IC50     > 32 µM

Item COc1ccc2ncc(=O)n(CCN3CCC(NCc4ccc5c(n4)NC(=O)CO5)CC3)c2c1 ; assay system Potassium voltage-gated channel subfamily A member 5 (Homo sapiens, UniProt P22460); IC50 reported as > 100 µM

Item N[C@@H](Cn1c(=O)cnc2ccc(F)cc21)[C@H]1CC[C@H](NCc2ncc3c(n2)NC(=O)CO3)CC1 ; assay system Potassium voltage-gated channel subfamily A member 5 (Homo sapiens, UniProt P22460); IC50 reported as > 100 µM
